- System: U251 CNS
- Experimental details: NCI-60 one-dose screen, 48 h (100 = growth as untreated, 0 = no growth, -100 = all killed)
- Measurement context: 10 µM
About 83,000 compounds went through this panel and 20% of them were active in at least one assay; those are over-represented in the sample as a whole.

Molecule | Value unit | growth
COc1cc(C2CC(c3ccccc3)=Nc3c(N)nc(N)nc3N2)ccc1Oc1nc(Nc2ccc(F)cc2)nc(N(C)C)n1 (stereo unspecified) | % | 56.3
O=C(NC(=S)N1CCN(c2ncnc3c2cnn3-c2ccccc2)CC1)c1ccc(Cl)cc1 | % | 38.3
N#Cc1ccc(-c2nn(-c3ccc(C(=O)O)cc3)cc2CNc2cc(Cl)cc(C(F)(F)F)c2)cc1 | % | 18.5
CC(=O)NS(=O)(=O)c1ccc(NC(=O)CSC2=NC(c3ccccc3)C(C(C)=O)=C(C)N2)cc1 (stereo unspecified) | % | 116
COc1ccc2nc(Cl)c(-c3cc(-c4ccccc4)nc(=S)[nH]3)cc2c1 | % | 87.2
O=C(CSc1nnc(-c2c[nH]c3ccccc23)n1-c1ccccc1)Nc1ccc(C(=O)/C=C/c2ccc(Cl)cc2)cc1 | % | 73.9

----------
- System: NCI-H460 lung
- Experimental details: NCI-60 one-dose screen, 48 h (100 = growth as untreated, 0 = no growth, -100 = all killed)
- Measurement context: 10 µM
About 83,000 compounds went through this panel and 20% of them were active in at least one assay; those are over-represented in the sample as a whole.
Each entry below carries its recorded growth.

Compound | Value unit | growth
N#Cc1ccc(-c2nn(-c3ccc(C(=O)O)cc3)cc2CNc2ccc(Oc3ccccc3)cc2)cc1 | % | 40.2
CCCS(=O)(=O)c1oc(-c2ccc(F)cc2)nc1S(=O)(=O)c1ccc(F)cc1 | % | 61.7
Nc1n[nH]c2cccc(C#Cc3cccc(NC(=O)Nc4cc(C(F)(F)F)cc(C(F)(F)F)c4)c3)c12 | % | -56.8
O=C(Nc1ccc(Cl)c([N+](=O)[O-])c1)Nc1ccc(Cl)c([N+](=O)[O-])c1 | % | 9.48
Cc1ccc(NC(=O)c2ccc(-n3c(=O)[nH]c4ccccc4c3=O)cc2)cc1 | % | 86.3
CCOC(=O)C1=C(N)N(c2ccccc2)C2=C(C(=O)CC(C)(C)C2)C1c1ccccc1OC (configuration not stated) | % | 115
COC(=O)C(Cc1ccc(O)c(O)c1)NC(=O)C(CSC/C=C(\C)CCCC(C)CCCC(C)CCCC(C)C)NC(C)=O (configuration not stated) | % | 18.9
Cc1ccc(C(C)C)cc1NC(=O)c1ccccc1N(C)C | % | 102
CCCSc1nc(NC2CC2)c(C#N)c(-c2ccc(OC)cc2)n1 | % | 85.6
COc1ccc(NC(=O)CSc2nnc(-c3ccc4nc(-c5ccc(Cl)cc5)[nH]c4c3)o2)cc1 | % | 10.7
COc1ccc2cc([C@H](C)C(=O)NCc3ccccc3)ccc2c1 | % | 17.7
O=C(c1ccc(Cl)cc1)C1[C@H](c2ccc(Br)cc2)[C@@H](c2ccccc2)NC12C(=O)Nc1ccc(Br)cc12 (some centres not stated) | % | -62.5
COc1cccc(/C=C2\N=C(C)N(CCc3ccc(S(N)(=O)=O)cc3)C2=O)c1 | % | 105
O=C(c1ccc(Cl)cc1)C1[C@H](c2ccccc2Br)[C@@H](c2ccccc2)NC12C(=O)Nc1ccc(Cl)cc12 (some centres not stated) | % | -13.5
CC(=O)Nc1nc(-c2ccc(N3CCN(C)CC3)c(NS(=O)(=O)c3ccc(C(F)(F)F)cc3)c2)cs1 | % | 31.3
CC(C)NC(=O)c1cc(-c2ccc(NC(=O)Nc3ccc(N4CCN(C)CC4)c(C(F)(F)F)c3)cc2)nc2cccnc12 | % | -61.7
COc1ccc(-c2c(N)c(=O)n(C)c3ccccc23)cc1 | % | 88.1
C=C(C)[C@@H]1CC[C@]2(C(=O)OC)CC[C@]3(C)[C@H](CC[C@@H]4[C@@]5(C)CC[C@H](N)C(C)(C)[C@@H]5CC[C@]43C)[C@@H]12 | % | -53.7
O=c1[nH]c2ccccc2cc1CSc1ccc(Nc2nccc(-c3ccc(Cl)cc3)n2)cc1 | % | -59.6
COc1nccnc1NS(=O)(=O)c1ccc(NC2=C(Cl)C(=O)c3nc(C)ccc3C2=O)cc1 | % | 118
COc1cccc(COc2ccc(/C=C3\Oc4cc(O)ccc4C3=O)cc2)c1 | % | 27.4
COc1ccc2[nH]c(=O)c(CSc3ccc(Nc4nccc(-c5ccc(Cl)cc5)n4)cc3)cc2c1 | % | 112
CC1(C)[C@@H](NCO)CC[C@]2(C)[C@H]3C(=O)C=C4[C@@H]5C[C@](C)(CO)CC[C@]5(C)CC[C@@]4(C)[C@]3(C)CC[C@@H]12 | % | 0.687
CN(C)c1ccc(/C=C/C(=O)c2ccc(NC(=O)CN3C(=O)NC(C)(c4ccccc4)C3=O)cc2)cc1 (configuration not stated) | % | 73.7
COc1ccc2nc(Cl)c(-c3cc(-c4ccccc4)nc(N)n3)cc2c1 | % | 3.53
CC(C)CCSc1nc(NC2CC2)c(C#N)c(-c2ccc(C(C)C)cc2)n1 | % | 120
O=C(Nc1ccc(Cl)c(C(F)(F)F)c1)c1cncc(C#Cc2cnc3ccc(N4CCOCC4)nn23)c1 | % | 29.3
O=C(Nc1cccc(-c2cn(-c3ccc4oc(=O)ccc4c3)nn2)c1)Nc1cc(C(F)(F)F)cc(C(F)(F)F)c1 | % | 27.8
CCNCCCn1c2c(c3cc(OC)c(OC)cc3c1=O)C(=O)c1cc3c(nc1-2)OCO3 | % | -24.7
N#Cc1ccc(NC(=O)CSc2ccc(-c3ccc(Br)cc3)nn2)cc1 | % | 64.6
CC(=O)OC[C@@]1(C)C2CC[C@]3(C)C(CC=C4C5CC(C)(C)CC[C@]5(C(=O)Nc5ccccc5)CC[C@]43C)[C@@]2(C)C[C@@H](OC(C)=O)[C@@H]1OC(C)=O (some centres not stated) | % | 32
COc1cc(-c2nc3cc(Cl)c(Cl)cc3[nH]2)ccc1OCc1nnc(-c2ccc(Br)cc2)o1 | % | 22.9
